Assay method text: Effect of concentration on the stability of the solution (purity over time)
Condition details: 50 wt %; in water at 25° C.
Quantity name: Purity at Day 7 (%)
Provide only the numeric value, understood in %.

Reference set, count: 5
{"Molecule": "CCN(CC)CCOC(=O)C(C)c1ccc2oc(-c3ccc(Cl)cc3)nc2c1.Cl (stereo not shown)", "Reported": 98.3}
{"Molecule": "CCN(CC)CCOC(=O)Cc1c(C)n(C(=O)c2ccc(Cl)cc2)c2ccc(OC)cc12.Cl", "Reported": 98.4}
{"Molecule": "CCN(CC)CCOC(=O)CCc1ccc2cc(OC)ccc2c1.Cl", "Reported": 98.3}
{"Molecule": "CCN(CC)CCOC(=O)CCc1nc(-c2ccccc2)c(-c2ccccc2)o1.Cl", "Reported": 98.5}
{"Molecule": "CCN(CC)CCOC(=O)CC1=C(C)C(=Cc2ccc([S+](C)[O-])cc2)c2ccc(F)cc21.Cl (stereo not shown)", "Reported": 97.5}

Value lookup for Purity at Day 7; key = CCN(CC)CCOC(=O)Cc1ccc(C(=O)c2ccc(C)cc2)n1C.Cl
97.5

Value lookup for Purity at Day 7; key = CCN(CC)CCOC(=O)Cc1sc(-c2ccccc2)nc1-c1ccc(Cl)cc1.Cl
98.5
